# Lookup of reported GI50 keyed by entry
- Test system: HT-29
- measurement protocol: NCI tumour cell line growth inhibition, 48 h
Activity calls are given as the source filed them. Rule as the data show it: active = GI50 up to about 1.1 µM and inactive = higher.

Here are 3 molecules together with their reported answers.
CC(C)C1/C(=N/O)CC(c2ccccc2)N(N=O)C1c1ccccc1 (stereo unspecified) :: 21.2 µM (inactive)
CCOC(=O)COC1=Nc2cc(OC)c(OC)c3nc(Cl)cc(c23)C1=O :: 2.29 µM (inactive)
CSc1nncc(-c2cc3c(c(SC)n2)CCC3)n1 :: > 100 µM (inactive)

Exercise: Which value of GI50 has been reported for `COc1cc(/C=C/C(=N\NC(=O)c2ccccc2)c2sc(Nc3ccc(Cl)c(Cl)c3)nc2C)ccc1O` in the records?
Key: 28.9 µM (inactive)

Exercise: Recorded GI50 for Cc1cc(O)c2c(c1)C(C1OC(CO)C(O)C(O)C1O)c1cc(O)cc(O)c1C2=O (stereo unspecified) , please?
Key: > 100 µM (inactive)

Exercise: I have this molecule here, NC(Cc1ccccc1CP(=O)(O)O)C(=O)O (stereo unspecified) , and I need its recorded GI50.
Key: > 100 µM (inactive)

Exercise: Can you look up the measured GI50 of CCCCC(C(=O)C(=O)Nc1ccc(C)cc1C)C(=O)C(C)C (stereo unspecified) for me?
Key: > 100 µM (inactive)

Exercise: // lookup GI50 for O=C(Nc1ccc(Cl)cc1)C1C(=O)C(=O)N(c2ccc(Cl)cc2)C1=O (stereo unspecified)
Key: 74.8 µM (inactive)

Exercise: Param item = `CCOC(=O)N1CCC2(CC1)CC(=O)N(Nc1ccccc1)C2=O` ; retrieve measured GI50.
Key: 90.2 µM (inactive)

Exercise: Return reported GI50; argument: `CCN1C(=O)C(=C/C=C/c2ccc([N+](=O)[O-])cc2)C(=O)N(CC)C1=S`
Key: 19.7 µM (inactive)

Exercise: Value lookup for GI50; key = CNC(=O)c1ccccc1[S+]1c2cccc3cccc(c23)C(=O)N1C (stereo unspecified)
Key: > 100 µM (inactive)

====

- System: HOP-62
- measurement protocol: NCI tumour cell line growth inhibition, 48 h
Activity calls are given as the source filed them. No stated cut-off is given here; in the data, active = GI50 up to about 1.1 µM and inactive = higher.
readout kind: GI50

The following compounds have reported results that may help.
Cc1ccc(O)c(C(=O)/C=C/c2ccccc2)c1 :: > 100 µM (inactive)
CCCCCCCCCCCCCCCc1ccc(OCC(O)CO)cc1 (stereo not given) :: 47.1 µM (inactive)
COc1ccc2c(c1)[n+]([O-])c(C(=O)C/C(=N/OCCCc1ccccc1)C(=O)NC13CC4CC(CC(C4)C1)C3)c(C)[n+]2[O-] :: > 100 µM (inactive)
Clc1ccc2c(c1)C1C(CO2)C(c2ccccc2)=NN1c1ccccc1 (stereo not given) :: 37 µM (inactive)
CSc1nc2c(c(O)c(C)c(=O)n2C2OCC(OC(C)=O)C(OC(C)=O)C2OC(C)=O)c(=O)n1C (stereo not given) :: > 100 µM (inactive)
CCOC(=O)/C(C#N)=C\c1ccc(N(CCC(=O)O)CCC(=O)O)c(I)c1 :: > 10 µM (inactive)
CC(=O)NC1C(OC2C(CO)OC(OCC3OC(n4ccc(N)nc4=O)C(O)C3O)C(NC(C)=O)C2O)OC(CO)C(O)C1O (stereo not given) :: > 100 µM (inactive)
Cc1cc2cc3c(cc2c(-c2ccc([N+](=O)[O-])cc2)n1)OCO3 :: 19 µM (inactive)

Exercise: I have this compound here, CCOC(=O)CC(NC(=O)c1nc[nH]c1[N+](=O)[O-])C(=O)OCC (stereo not given) , and I need its recorded GI50.
Key: 46.7 µM (inactive)

Exercise: Look at this compound and give its reported GI50. CNC(=O)c1ccccc1[S+]1c2cccc3cccc(c23)C(=O)N1C (stereo not given)
Key: > 100 µM (inactive)

Exercise: Give its GI50 value. Item: CN1CCC2(CC1)C(=O)N(NC(N)=O)C(=O)C2c1ccccc1 (stereo not given)
Key: > 100 µM (inactive)

Exercise: Param item = `Cc1ccc(/N=C2/C(c3ccccc3)=C(SC3=C(c4ccccc4)/C(=N/c4ccc(C)cc4)c4ccccc43)c3ccccc32)cc1` ; retrieve measured GI50.
Key: 10 µM (inactive)

// data source = ChEMBL document CHEMBL1201862
